test system: HOP-92 NSCLC; assay: NCI-60 one-dose screen, 48 h (100 = growth as untreated, 0 = no growth, -100 = all killed); settings: 10 µM unless noted
This is part of a sample that, as a whole, favours compounds with a hit. Of some 83,000 tested, about 20% had one in any assay. Calls of active or inactive are those of the source. How the source made its calls: active means growth percent below 10; inactive means the rest.
Measure Name: growth

// below: answered compounds
O=C(O)c1ccc[n+](CC(=O)N2CCN(c3cc4c(cc3F)c(=O)c(C(=O)O)cn4C3CC3)CC2)c1	109% (inactive)
COc1cc2oc(-c3cccc(C(=O)Nc4ccc(Cl)cc4)c3)cc(=O)c2c(OC)c1OC	-2.18% (active)
Cc1ccc2[nH]c(=S)n(-c3ccc(S(=O)(=O)Nc4ccc(Cl)nn4)cc3)c(=O)c2c1	104% (inactive)
FC(F)(F)Oc1cccc(-c2cc(NCCCCCCNc3cc(-c4cccc(OC(F)(F)F)c4)nc4ccc(N5CCCC5)cc34)c3cc(N4CCCC4)ccc3n2)c1	-23.9% (active)
CN1CCN(CCCNc2nccc(-c3c(-c4ccc(F)c(O)c4)nc4sccn34)n2)S1(=O)=O	70.7% (inactive)
Cc1cc2nc(-c3ccccc3)c(-c3ccccc3)nc2cc1C	89.6% (inactive)
CC1(C)CN(c2cnc(C(=O)Nc3cc(F)cc4cccnc34)cn2)CCN1	64.6% (inactive)
O=C(Nc1nc(-c2ccc(Br)cc2)cs1)c1cc(-c2ccc(Br)cc2)nc2ccc(Cl)cc12	71.7% (inactive)

From here, focus on the item given below.
Problem: GET /values?readout=growth&system=HOP-92 NSCLC&item= OC1(c2ccc(Cl)c(C(F)(F)F)c2)CCN(CCCC(c2ccc(F)cc2)c2ccc(F)cc2)CC1
Solution: -87.5% (active)
